# ASSAY OVERVIEW: qHTS of pediatric cancer cell lines to identify multiple opportunities for drug repurposing: Primary screen for LAN-5 cells (AID 1347100)
# MEASUREMENT CONTEXT: LAN-5 neuroblastoma viability, CellTiter-Glo luminescence, 48 h; series mostly up to 46 µM
Results filed as inconclusive are left out. Calls of active or inactive are those of the source. The call rests on the fitted dose curve; in most records, active means well fitted cell-killing curve with a large enough effect; inconclusive means small, poorly fitted or top-dose-only effect; inactive means no such curve, though single readings can be large or run the other way.
MEASURED ENDPOINT: outcome

{"columns": ["MOLECULE", "DATA VALUE"],
 "data": [
  ["COc1ccc2nc(S(=O)Cc3ncc(C)c(OC)c3C)[nH]c2c1 (stereo not drawn)", "inactive"],
  ["c1ccc([C@H]2CN3CCSC3=N2)cc1", "inactive"],
  ["CC(C)OC(=O)C1=CN(C(=O)c2ccc(F)c(F)c2)CC(C)(C)c2c1[nH]c1ccccc21", "inactive"]
]}
